# assayText: In vitro enzyme assay to detect hydrolysis of chlorophenol red-beta-D-[…] directly proportional to the number of Toxoplasma stably expressing beta-galactosidase
# Assay type: functional, organism-based, Toxoplasma gondii
Assign t whenever pIC50 does not fall below 5; assign f whenever it does.

The following compounds have reported results that may help.
INSERT INTO assay_data (compound, labelvalue) VALUES
  ('CCN1C[C@H]2CCN(C(=O)NC)CC[C@H]2S1(=O)=O', 'f'),
  ('OC1CCN(c2ccnc(NCCc3ccccc3Cl)n2)C1 (stereo unspecified)', 't'),
  ('Cc1cc(NC(=O)C(C)C)n(-c2nc(C)c(C)c(=O)[nH]2)n1', 't'),
  ('Cc1nc(-n2nc(C3CC3)cc2NC(=O)C(C)C)[nH]c(=O)c1C', 't'),
  ('CCN(CCO)Cc1ccc(Br)c2cccnc12', 't');

## Task I'd appreciate it if you could say whether CCN(CC)c1nc(Nc2cccc(C(C)O)c2)nc2ccccc12 (stereo unspecified) has pIC50 at least equal to 5.
## Result t

## Task Has `CCn1c(NCc2ccccc2)nc2c(C)nn(C)c2c1=O` a recorded pIC50 greater than or equal to 5?
## Result f

## Task Assess whether reported pIC50 for `Cc1c(-c2cc(C(F)(F)F)nc(N3CCC(N)CC3)n2)cnn1C` sits at 5 or higher.
## Result t

## Task Record `O=C(c1ccc(-c2ccc(O)nc2)s1)N1CCSCC1` ; criterion: pIC50 no lower than 5. Met?
## Result f

###

# assayText: microbe, parasite or virus in culture
# conditionDetails: Mycobacterium tuberculosis, 72 h, read-out: pIC50 (converted)
readoutType: IC50

Here is how some molecules turned out for IC50.
INSERT INTO measurements (molecule, readouttype, resultvalue) VALUES
  ('COC[C@@H]1CN(C)C(=O)[C@@H]2CCN(Cc3ccco3)CC[C@H]12', 'IC50', '> 50.1 µM'),
  ('CCc1cc(CN(C)C(=O)c2cnon2)on1', 'IC50', '> 50.1 µM');

Now look at this one.
The reported value for COc1c(Cl)cc(NC(=O)C2COCCN2)cc1Cl (stereo not drawn) in terms of IC50 is 200 µM

###

# assayText: microbe, parasite or virus in culture
# conditionDetails: Mycobacterium tuberculosis, 72 h, read-out: pIC50 (converted)
readoutType: IC50 (µM)
# value in µM; strip the unit string

See these solved cases before continuing.
INSERT INTO results (compound, readouttype, resultvalue) VALUES
  ('CN(C)C(=O)CSc1nnc(C(F)(F)F)s1', 'IC50', 487),
  ('CC1CCCN(c2nc(C(=O)N3CCOCC3)cs2)C1 (stereo unspecified)', 'IC50', 133),
  ('Cc1cnn(CC2CCCN2Cc2ncc(-c3ccc(F)cc3)o2)c1 (stereo unspecified)', 'IC50', 27),
  ('CN(C(=O)CN1CCCC1Cc1ccccc1)c1ccccc1 (stereo unspecified)', 'IC50', 33),
  ('CN(Cc1ccc(Br)o1)C(=O)c1nccnc1N', 'IC50', 210);

Now for a further compound.
So for `CCc1ccccc1OC1CN(C(=O)c2ccnc(OC)c2)C1` , the logged IC50 turned out to be 21.3

###

# assayText: microbe, parasite or virus in culture
# conditionDetails: Mycobacterium tuberculosis, 96 h, read-out: pIC50 (converted)
Listed below: log10(IC50) values for each entry.
Form field - Quantity: IC50; Unit: µM; Scale: log10

Solved entries:
INSERT INTO measurements (molecule, resultvalue) VALUES
  ('NS(=O)(=O)NCCCc1ccc(Br)cc1F', 2.34),
  ('COc1ccc(OC)c(NC(=O)c2ccccn2)c1', 2.19),
  ('Cc1noc(NC(=O)c2ccc(C(F)(F)F)nc2C)n1', 2.18),
  ('COc1ccc(C[C@H]2CN(c3nnc(C)s3)CC[C@H]2OC)cc1.O=C(O)C(F)(F)F', 1.21);

Note: attention shifts to another entry.
log10(IC50) reported for this molecule `NC(=O)c1ccc(-c2nc(C3CCCC3)no2)o1` : 2.36
